Source of measurements: a protein production outcome set (Wang et al. 2014)

test: label from the status in PepcDB records
endpointLabel: protein production

biosequence=SEKLAASTEPQGPRPVLGRESVQVPDDQDFRSFRSECEAEVGWNLTYSRAGVSVWVQAVEMDRTLHKIKCRMECCDVPAETLYDVLHDIEYRKKWDSNVIETFDIARLTVNADVGYYSWRCPKPLKNRDVITLRSWLPMGADYIIMNYSVKHPKYPPRKDLVRAVSIQTGYLIQSTGPKSCVITYLAQVDPKGSLPKWVVNKSSQFLAPKAMKKMYKACLKYPEWKQKHLPHFKPWLHPEQSPLPSLALSELSVQHADSLENIDESAVAESREERMGGAGGEGSDDDTSLT reportedmeasurement="not failed"
biosequence=MTYLVTGATGGLGGYALNYLKELVPMSDIYALVRSKEKGADLKAAGFNIRVGDYSDAESMKQAFAGIDRVLFVSGAPGNRQVEHENVINAAKKAGVSYIAYTSFAGADKSTSALAEDHFFTEKVIEKSGIAHTFLRNNWYFENEMPMIGGALSAGKFVYAAENGKVGWALKREYAEVAAKAVAGAGFPEILELSGPLMTYEELTKALKEATGKDFDVISSDDKGFVENLVSVGLPQPVAEMFLSFQHDIKNDQLDVTSDDFEKALGKPLTNRVDALRELLKLEHHHHHH reportedmeasurement="not failed"

* * *

test: label from the status in PepcDB records
endpointLabel: protein production

biosequence=MAFTKIIFKNPNTGAIKEAPVGFSWTVFFFGFIPALFRADWKWAAIMFLLAMFTFGLSNLVFMFIYNKLYVRDLIGAGFKAQSIASGDLNFASSRIGMEIPRLEAA reportedmeasurement=failed
biosequence=MSLKYFKRLSDRERAIFEAGITLGAIYHQFCGTPVSPGTAEEVAKCIERAALLQPCVIDARVEVDVSSEDTDNYGGYTEVSGRNLRVTIVTRCGEWEAVGKLEFIEELNYPLMWVEEIRRVEQEGHHHHHH reportedmeasurement="not failed"
biosequence=MADNINESEIIERLNSAPSVRGFFIATVDVFNESIDGLIQRIFRKDNFAVQSVVGPLLQDSGPLGDLSVRLKLLFGLGVLPDDIYHDIEDIIKLKNHLNSDASDYEFTDPNILEPIKKLHLVKKMGMVQLEVNEPDDDIDLEFYQLQLQRQQQIIKSGLSLAIVEICNELGK reportedmeasurement="not failed"
biosequence=MTAAILVTGATGKLGQRVVNRLLQKQAKVRVLTRRREDALKLWGDSVDIAEGNFSDPASLKGASRDVDRVFLLSPIGKTLAADQNAVVDAALSAGVSQIVKLSGSDWTLKNAARSISGTAHAAVEKHLAETGIAHTVLRPNAWMQVALEPVVAALRNGEDVPARFGNAAVSFIDADDIADVAVEALSASAPPAGTLVLTGHEALAALGIARIAARILHRPVGVSHQSASTFPAHIGGFEQKAIAEFGQLIGEGLAASTTDIVEQIIGHPPRSVENYLRARLAVAQQGDHSEGEKTWR reportedmeasurement=failed
biosequence=LKGEPDCYALSLESSEQLTLEIPLNDSGSAGLGVSLKGNKSRETGTDLGIFIKSIIHGGAAFKDGRLRMNDQLIAVNGETLLGKSNHEAMETLRRSMSMEGNIRGMIQLVILRR reportedmeasurement="not failed"
biosequence=MPISAHYGLTVLIWGLTWTAIRLQVESASVDLAVFYRFVMASVVALAVLAVTRRLSRLTLGQHGWLFLQGLTLYSVNFLLIYRAAESMTSGLLAVVFSLAALFNAFNGWLWLRTRPTARLYPAVALGVTGVALLFWHDLQLGNATGASILFAVAGTFWFSMGNLVSVKVKAAGVPLFTANAWAMVYGALILGLWCLIQGVEWMLPATSVFWGATVFLAVPGSIVAFYCYITVIQVLGADKAGYAAVLFPVVALSVSTWLEGFEWTTPAMLGALLAILGNYVLFRPGKRQSVSATSVPEQRT reportedmeasurement=failed
biosequence=MEQPQEEAPEVREEEEKEEVAEAEGAPELNGGPQHALPSSSYTDLSRSSSPPSLLDQLQMGCDGASCGSLNMECRVCGDKASGFHYGVHACEGCKGFFRRTIRMKLEYEKCERSCKIQKKNRNKCQYCRFQKCLALGMSHNAIRFGRMPEAEKRKLVAGLTANEGSQYNPQVADLKAFSKHIYNAYLKNFNMTKKKARSILTGKASHTAPFVIHDIETLWQAEKGLVWKQLVNGLPPYKEISVHVFYRCQCTTVETVRELTEFAKSIPSFSSLFLNDQVTLLKYGVHEAIFAMLASIVNKDGLLVANGSGFVTREFLRSLRKPFSDIIEPKFEFAVKFNALELDDSDLALFIAAIILCGGE reportedmeasurement="not failed"

* * *

assay: label from the status in PepcDB records
endpointLabel: protein production

biosequence=MWDSENIEELSLVIGIGLDKPDDENLELTQQILVPKIISAKEGSSSDPTQLSITKGKTVHQMMRTSALKHKPTFSQHLRLILLSKSVIADQIGMDAIINQFVRDNGTRRSSYVFITNGRTKDIFNMNDEGEPASNVIYDLTENNKVTIRTMEPVTLGEISEHLTSDDSFLIPHVGKENGKLAINGASIIKNKLWHRDLTPIEVQNISLFSGTVEGGVIDLKRDGHLFSYEVYSSNRKIKTAYKDGKFKFTVTRNIEGRLSEDWNPNEDSFKDSYIKSIEKTVEKRVHETVTSFITEKLQKEIKADVTGLGNEVRIHYPQKWKKISRKWDDDYFSNAEIDYRVNVIVRDFGTKGANKLEHHHHHH reportedmeasurement="not failed"
biosequence=MNEFTAVKELSEKLLEDYKTESSFFFASPTRTILAEGEFTTVKHHEIESFPELVQAVLRNAKQAGNPNPIVVGALPFDRRKEVQLIVPEYSRISERLQLDPTNHLEINRNLTFEMTPVPDHEVYMKGVKQGIEKIKDGDLKKIVLSRSLDVKSSGKIDKQKLLRELAEHNKHGYTFAVNLPKDENENSKTLIGASPELLVSRHGMQVISNPLAGSRPRSDDPVEDKRRAEELLSSPKDLHEHAVVVEAVAAALRPYCHTLYVPEKPSVIHSEAMWHLSTEVKGELKNPNTSSLELAIALHPTPAVCGTPMEEAREAIQKIEPFDREFFTGMLGWSDLNGDGEWIVTIRCAEVQENTLRLYAGAGVVAESKPEDELAETSAKFQTMLKALGLNDSSLNEK reportedmeasurement="not failed"

* * *

test: label from the status in PepcDB records
endpointLabel: protein production

biosequence=MLTFEKVLEIFADYLTADETIEVYISRHGCVRVEFDQDFHYCSGEVCHTPKELFNLLADDYRTYVEIELTKGRRELTEDDEREADALCKRHLERWREKLE endpointlabel="protein production" reportedmeasurement=failed
biosequence=MSHFVHPNALCESDTIGEGTRVWAFAHVLPGARLGRDCNICDGVFIESDVVVGDRVTVKCGVQLWDGVRLGDDVFVGPNATFTNDLFPRSRVYPEKFLGTVVESGASIGANATILAGTTIGSGAMIGAGAVVTRSVPPNAIVVGNPARIVGYVSDKDATGSAPSPTGQGITDTAVPGVKLYRMPSFADMRGSLSVGDFETFLPFNAKRYFLVYGVPTQETRGEHAHKRCHQFLICVSGSVRVLADDGTRRIDVELNSPSQGIHLPPMIWGTQYKYSKDAVLLVFASESYDTDEYIRDYSDFKSLANAAR endpointlabel="protein production" reportedmeasurement=failed
biosequence=MKKLINRVDDVLSEQLQGFAKAHPEINLHPSSFYVTRHDAPVKGKVALLSGGGSGHEPMHAGFVGKGMLDGACPGEIFTSPTPDKMYDCAKAIDSGEGVLMIVKNYTGDVLNFETATELLHDEGVKIATVLVDDDVAVKDSLYTAGRRGVANTVLMEKLLGAAAERGDTLDDLVKLGHQINNNGFSIGIALQACTVPAAGKPSFTLPENEMEFGVGIHGEPGIDRRPFTSLNDTVDAMFNTLIENGHYQRTIRSWDRVNGDWIEETQEKQPLKSGDRVIALVNNLGATPLSELYGVYHRLALCCENFGLNIERSLIGSYCTSLDMSGISITLLKVDDALLTLWDAPVATPAMTK endpointlabel="protein production" reportedmeasurement=failed

* * *

assay: label from the status in PepcDB records
endpointLabel: protein production

biosequence=MIPRCLINQILRLAQASPEREVCGLVGAAAGRRMRCYPVPNVAERPECRFLLDPKGQIDALRAMRERGEELFAIFHSHPTAAAIPSPADLEFAAYPEALHLIVSLGTKGVLEMRGFRIGSSSRPREVELLLAPELEHHHHHH reportedmeasurement=failed
biosequence=MQIYLSTLTELDYDKSLNSIEESFDDNPETSWQARAKVKHLRKSPCYNFELEVIAKNENNDVVGHVLLIEVEINSDDKTYYGLAIASLSVHPELRGQKLGRGLVQAVEERAKAQEYSTVVVDHCFDYFEKLGYQNAAEHDIKLESGDAPLLVKYLWDNLTDAPHGIVKFPEHFY reportedmeasurement=failed
biosequence=MASKPEKRVASSVFITLAPPRRDVAVSEEVGQAACEARRARPWEMLPTKTPGAAVGRSPKTWTPSGKTNASLSGVTPQLSNGGCSLPPPSLNEEDLDLPPPPPPPSAYLPLPEEEPPVLPGKSLISDLEQLHLPPPPPPPPPQAPSKGSSVHPPPGHAIPSEEELPPPPEEPVTLPEREVSTDVCGFCHKPVSPRELAVEAMKRQYHAQCFTCRTCRRQLAGQRFYQKDGRPLCEPCYQDTLEKCGKCGEVVQEHVIRALGKAFHPPCFTCVTCARCISDESFALDSQNQVYCVADFYRKFAPVCSICENPIIPRDGKDAFKIECMGRNFHENCYRCEDCSVLLSVEPTDQGCYPLNDHLFCKPCHLKRSAAGCC reportedmeasurement=failed
biosequence=MNKNQMLLGSFLCLLAVTAWGFMFPVMARALQFIDPFFFTTLRYGSAAIIFLILLLITEGKTSLRLEKRTLSLFFYGTVGFAGYGFLVFYGQQLAGPSGAIHAAMIQSLMPLIALSLQWITQNRRPQNYTFLCMFVALLGVMLVISKGNIELLFGAASHLSTNILMLCGVTCWVIYTNGAARFQSWSPLRYTTLTCLFGSISLIVIVTFLTYTNIVTMPSLRTVVSVRFELFYMSIIAGVIAVFCWNMGNRYISSINGILFMNLVPILALIGSIFRGYTVDKIEIAGAALTIIALLCNNLWQRKVNIKIPTSVR reportedmeasurement=failed
biosequence=MITNNVSLLIMGIDENQERQKEYNGAFHTDALLLATFNKDDKTVKLTSIPRDTYTYVPVEKKKDKITHAYGSGFVKNGKDGGPQTSVEAVEKLLQVPVDYFVKFNFNSFTKIVDGLDGIEVDVPVEFTEQNSKDEPDAIHLKKGLQKLTGEEALALARTRHIDSDAMRGQRQQLVIEAILSKLKSVGSITKLEKIVEAVDGDFKTNLAMDDILSFYKYGLNCSIEKIQLAGDDLYLPNGPNGQRVYYYNPNKKDLQSLSNTLRTHLGLSEKQIEENLEHHHHHH reportedmeasurement="not failed"
biosequence=MGHHHHHHSHMALRDLCVVLLNGQHLEVKCDVESTVGAVFNAVTSFANLEELTYFGLAYMKSKEFFFLDSETR reportedmeasurement=failed
biosequence=MNYQLFKHSDENASYVVFSSGLGGHGSFWQAQLDVFRQYFHVLIYDQEGCHASSELLADGYSFEHLALQVKQLLQQLNIVRFHFIGHALGGFIGIELAHRYASETCQLLSLTLINAWQQLDPHTLRCFTTRIALLQHAGTAAYLHAQALFLYPPLWISEHTALLEQQEAKMQSDFPPHANVLKRLNALMQYQVNTARIDTLKQLPVCLIANQDDMLVPYVQSLNLWKKLPDAQLKLLPYGGHASTVTEARQVNQLMLDFLK reportedmeasurement=failed
biosequence=MMKKMMVLYNETSGSSESKEIAERFKKAAEARGEAVILQPSNPDIDPEEMRKNAKENQVGVLVVIGGDGTIHHAVQNFKDTIRDYQIGIIPGGTVNNFARVLSIPLKEEDAFETILAGQTTPVDFGMVNQD reportedmeasurement=failed
biosequence=MDYLVKALAYDGKVRAYAARTTDMVNEGQRRHGTWPTASAALGRTMTASLMLGAMLKGDDKLTVKIEGGGPIGAIVADANAKGEVRAYVSNPQVHFDLNEQGKLDVRRAVGTNGTLSVVKDLGLREFFTGQVEIVSGELGDDFTYYLVSSEQVPSSVGVGVLVNPDNTILAAGGFIIQLMPGTDDETITKIEQRLSQVEPISKLIQKGLTPEEILEEVLGEKPEILETMPVRFHCPCSKERFETAILGLGKKEIQDMIEEDGQAEAVCHFCNEKYLFTKEELEGLRDQTTR reportedmeasurement="not failed"
biosequence=APSQGATANAETQTTIPLGDTSQNALDWPGVYEGVLPCASCEGIQTTLTLQADNSFELKSIYLGKDESIFKVAGKFDWDSNGSKITLSDGSKYLVGENQLLMLDTEGNRITGGLAEHYILKKKGM reportedmeasurement="not failed"
biosequence=MISSATKTLQTNNKTIYVAILSTLTFFLFLDYIPGLQAWSAWVTPPVALFLGLIFALTCGQAHPKFNKKTSKYLLQYSVVGLGFGMNLQSALASGKEGMEFTVISVVGTLLIGWFIGRKIFKIDRNTSYLISSGTAICGGSAIAAIGPVLRAKDSEMSVALGTIFILNAIALFIFPAIGHALDMTEHQFGTWAAIAIHDTSSVVGAGAAYGEEALKVATTIKLTRALWIIPMAFATSFIFKSKGQKISIPWFIFFFILAMIANTYLLNGVPQLGAAINGIARKTLTITMFFIGASLSLDVLRSVGVKPLIQGVLLWVVISLSTLAYIYFV reportedmeasurement=failed
biosequence=MCRTRPSCGRMEEKRPVDAAGAVALIGIAALLAFNQVVIKVTGGGFGPLFQAGLRSALGLVFVLIWMRLLRKPIVFPRAALMGALITGLLFTVEFMALFAALDLTSVSRVSILFYSMPVWLALGGHFLLPGERLSGMRVLGLMLAMGGVVLALLERDAAHVSLLGDALAVFAAMCWAAIALGVRLTPLGRVPAEMQLMSQLVISAPLLLVLAPLTGETLRTPGLLHWAGLLFQAVGVVGLGFLIWFRLLAVYRANGVASFSFLSPVLAVILGWLLLGEQVGPLVWLALGLVAAGIVLINRR reportedmeasurement=failed
biosequence=SDMVAQALELSRKPHVVIATPGRLADHLRSSNTFSIKKIRFLVMDEADRLLEQGCTDFTVDLEAILAAVPARRQTLLFSATLTDTLRELQGLATNQPFFWEAQAPVSTVEQLDQRYLLVPEKVKDAYLVHLIQRFQDEHEDWSIIIFTNTCKTCQILCMMLRKFSFPTVALHSMMKQKERFAALAKFKSSIYRILIATDVASRGADQPPLPPGAWTSLRYRWSSTTTPPGSPRSTSTESAGRPVQGGRVRPSRW reportedmeasurement="not failed"
